- Target: human HSL (Homo sapiens, UniProt Q05469)
- Construct: overlapping PCR to generate a full length human HSL ORF with a 3′-His6 tag; His6 (C)
- Sequence (Q05469 1-1076): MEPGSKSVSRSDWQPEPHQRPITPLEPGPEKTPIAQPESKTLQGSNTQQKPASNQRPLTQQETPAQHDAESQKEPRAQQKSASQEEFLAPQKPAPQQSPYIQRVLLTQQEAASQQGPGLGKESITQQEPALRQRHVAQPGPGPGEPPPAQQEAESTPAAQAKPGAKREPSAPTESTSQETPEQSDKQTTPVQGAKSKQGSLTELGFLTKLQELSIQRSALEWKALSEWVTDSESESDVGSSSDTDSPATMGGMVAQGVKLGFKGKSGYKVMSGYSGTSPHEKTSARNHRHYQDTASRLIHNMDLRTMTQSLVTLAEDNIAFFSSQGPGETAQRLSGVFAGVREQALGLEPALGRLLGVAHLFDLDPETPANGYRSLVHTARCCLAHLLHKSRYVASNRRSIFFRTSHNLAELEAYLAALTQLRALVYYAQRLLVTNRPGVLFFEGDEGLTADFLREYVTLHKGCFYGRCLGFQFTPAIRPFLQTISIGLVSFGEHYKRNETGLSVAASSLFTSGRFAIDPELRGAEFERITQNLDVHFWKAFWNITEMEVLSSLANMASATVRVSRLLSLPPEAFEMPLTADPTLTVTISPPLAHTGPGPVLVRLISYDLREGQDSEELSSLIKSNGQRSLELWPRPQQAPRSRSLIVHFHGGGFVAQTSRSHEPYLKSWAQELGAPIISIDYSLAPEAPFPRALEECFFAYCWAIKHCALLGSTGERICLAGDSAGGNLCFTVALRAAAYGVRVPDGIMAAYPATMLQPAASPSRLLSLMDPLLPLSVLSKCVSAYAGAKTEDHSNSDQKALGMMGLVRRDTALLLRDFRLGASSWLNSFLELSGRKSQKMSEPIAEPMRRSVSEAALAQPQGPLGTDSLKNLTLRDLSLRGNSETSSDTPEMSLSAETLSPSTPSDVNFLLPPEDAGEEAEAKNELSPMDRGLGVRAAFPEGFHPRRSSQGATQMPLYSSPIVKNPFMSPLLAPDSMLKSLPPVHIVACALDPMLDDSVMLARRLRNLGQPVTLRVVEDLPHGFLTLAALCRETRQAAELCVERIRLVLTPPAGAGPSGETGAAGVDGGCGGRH
- Assay Overview: Human Hormone-Sensitive Lipase (HSL) Enzyme Inhibition Assay
- Experimental Context: colorimetric assay, 2,3-dimercapto-1-propanol tributyrate (DMPT) substrate, 37° C. for 20 minutes, absorbance at 405 nm; read-out: HSL hum IC50
Categorize each record by its IC50 using category 1 (below 80 nM), category 2 (80 nM to below 100 nM), category 3 (100 nM or more)

Which bin should I file CCN(CC)S(=O)(=O)N1CCC2(CCN(c3ccc(OC(F)(F)F)cc3)C2=O)CC1 [Example 291] under?
category 2

Which bin should I file CCN(CCOC)C(=O)N1CCC2(CC1)CCN(c1ccc(OC(F)(F)F)cc1)C2=O [Example 274] under?
category 3

Which bin should I file Cc1noc(C)c1S(=O)(=O)N1CCC2(CCN(c3ccc(C(O)C(F)(F)F)cc3)C2=O)CC1 (racemic) [Example 162] under?
category 3

Which bin should I file O=C1N(c2ccc(COCC3CC3)cc2)CCC12CCN(S(=O)(=O)c1ccccc1Cl)CC2 [Example 148] under?
category 2

Which bin should I file O=C(N1CCC2(CC1)CCN(c1ccc(OC(F)(F)F)cc1)C2=O)N1Cc2ccccc2C1 [Example 277] under?
category 3

Which bin should I file CC(O)(c1ccc(N2CCC3(CCN(S(=O)(=O)c4ccccc4Cl)CC3)C2=O)cc1)C(F)(F)F (stereo not shown) [Example 155] under?
category 1

Which bin should I file O=C1N(c2ccc(OC(F)(F)F)cc2)CCC12CCN(S(=O)(=O)c1cccnc1Cl)CC2 [Example 188] under?
category 1

Which bin should I file O=C1N(c2ccc(OC(F)(F)F)cc2)CCC12CCN(S(=O)(=O)c1cccnc1)CC2 [Example 187] under?
category 1

Which bin should I file CC(C)(C)CC(=O)N1CCC2(CC1)CCN(c1ccc(C(O)C(F)(F)F)cc1)C2=O (stereo not shown) [Example 165] under?
category 3
